- target.desc: FGFR4 (Homo sapiens (Human))
- assay.method.text: Inhibitory activity on kinase FGFR4 (Caliper mobility shift)
- Format: biochemical
- assay.context: read-out: FGFR4 IC50
pIC50: −log10 of the molar value.
# Lookup of reported pIC50 keyed by entry
observed.property: pIC50

# compound, observed.property, result
measured = [
    ("C=CC(=O)N1CCN(CCCc2cn3c(n2)c(-c2c(F)c(OC)cc(OC)c2F)cc2cnc(NC)cc23)CC1 [Embodiment 2]", "pIC50", "> 7.70"),
    ("C=CC(=O)N1CCN(CCCc2cn3c(n2)c(-c2c(Cl)c(OC)cc(OC)c2Cl)cc2cnc(NCC(O)CO)nc23)CC1 (stereo not drawn) [Embodiment 10]", "pIC50", "> 7.70"),
    ("C=CC(=O)N1CCN(CCCc2cn3c(n2)c(-c2c(Cl)c(OC)cc(OC)c2Cl)cc2cnc(NCC)nc23)CC1 [Embodiment 8]", "pIC50", "> 7.70"),
    ("C=CC(=O)N1CCN(CCCc2cn3c(n2)c(-c2c(Cl)c(OC)cc(OC)c2Cl)cc2cnc(NCCC#N)nc23)CC1 [Embodiment 13]", "pIC50", "> 7.70"),
    ("C=CC(=O)N1CCN(CCCc2cn3c(n2)c(-c2c(Cl)c(OC)cc(OC)c2Cl)cc2cnc(NC)nc23)CC1(C)C [Embodiment 14]", "pIC50", "6.70 to 7.70"),
    ("C=CC(=O)Nc1ccc(-c2cn3c(n2)c(-c2c(Cl)c(OC)cc(OC)c2Cl)cc2cnc(NC)nc23)cc1 [Embodiment 17]", "pIC50", "< 6.70"),
    ("C=CC(=O)N1CCN(CCCc2cn3c(n2)c(-c2c(F)c(OC)cc(OC)c2F)cc2cnc(NC)nc23)CC1 [Embodiment 1]", "pIC50", "> 7.70"),
    ("C=CC(=O)N1CCN(CCCc2cn3c(n2)c(-c2c(Cl)c(OC)cc(OC)c2Cl)cc2cnc(NCC(C)(C)O)nc23)CC1 [Embodiment 12]", "pIC50", "> 7.70"),
    ("C=CC(=O)N1CCN(CCCc2cn3c(n2)c(-c2c(Cl)c(OC)cc(OC)c2Cl)cc2cnc(NCC4CCOC4)nc23)CC1 (stereo not drawn) [Embodiment 11]", "pIC50", "> 7.70"),
]

---

- Test system: various tumor cells (HuH-7, SNU-16, KG1, UM-UC-14, RT-112 etc.)
- assay.method.text: Proliferation inhibitory activity on various tumor cells (SRB or CCK8)
- Format: cell-based
- assay.context: SRB or CCK8 method; read-out: proliferation inhibitory activities on various tumor cells
pIC50: −log10 of the molar value.
Listing of entries alongside the reported pIC50.

# structure.smiles, pIC50
measured = [
    ("C=CC(=O)N1CCN(CCCc2cn3c(n2)c(-c2c(Cl)c(OC)cc(OC)c2Cl)cc2cnc(NC)nc23)CC1", "> 7.00"),
    ("C=CC(=O)Nc1ccc(-c2cn3c(n2)c(-c2c(Cl)c(OC)cc(OC)c2Cl)cc2cnc(NC)nc23)cc1", "> 7.00"),
]

---

Quick list: IC50 per entry.
- target.desc: FGFR4 (Homo sapiens (Human), UniProt P22455)
- Sequence (P22455 22-802): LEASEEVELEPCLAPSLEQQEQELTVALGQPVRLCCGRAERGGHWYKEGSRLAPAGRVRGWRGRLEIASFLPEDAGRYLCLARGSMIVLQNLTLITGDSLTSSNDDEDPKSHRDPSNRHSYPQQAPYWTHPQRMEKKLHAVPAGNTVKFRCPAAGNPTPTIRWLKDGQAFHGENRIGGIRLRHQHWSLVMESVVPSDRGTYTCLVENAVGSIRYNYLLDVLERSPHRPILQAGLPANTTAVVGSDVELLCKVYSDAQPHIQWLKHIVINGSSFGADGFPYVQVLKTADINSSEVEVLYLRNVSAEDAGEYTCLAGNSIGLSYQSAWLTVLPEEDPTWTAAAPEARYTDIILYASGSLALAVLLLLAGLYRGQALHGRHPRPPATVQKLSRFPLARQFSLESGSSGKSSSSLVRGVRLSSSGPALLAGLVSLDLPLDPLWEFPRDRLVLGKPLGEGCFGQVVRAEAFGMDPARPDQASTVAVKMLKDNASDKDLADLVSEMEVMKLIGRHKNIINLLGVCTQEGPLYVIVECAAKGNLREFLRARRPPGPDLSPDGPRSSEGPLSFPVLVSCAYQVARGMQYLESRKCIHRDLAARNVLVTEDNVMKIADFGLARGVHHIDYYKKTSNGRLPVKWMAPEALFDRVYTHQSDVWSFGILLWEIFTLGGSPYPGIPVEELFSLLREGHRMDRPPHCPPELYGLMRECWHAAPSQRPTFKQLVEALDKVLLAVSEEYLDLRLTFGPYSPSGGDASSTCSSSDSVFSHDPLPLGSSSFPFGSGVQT
- assay.method.text: Inhibitory activity on kinase FGFR4 (Caliper mobility shift)
- Type: biochemical
- assay.context: read-out: FGFR4 IC50

# structure.smiles, IC50
measured = [
    ("C=CC(=O)N1CCN(CCCc2cn3c(n2)c(-c2c(Cl)c(OC)cc(OC)c2Cl)cc2cnc(NC)nc23)CC1", "< 20 nM"),
    ("C=CC(=O)N1CCN(Cc2cn3c(n2)c(-c2c(Cl)c(OC)cc(OC)c2Cl)cc2cnc(NC)nc23)CC1", "> 200 nM"),
    ("C=CC(=O)N1CCN(CCCc2cn3c(n2)c(-c2c(Cl)c(OC)cc(OC)c2Cl)cc2cnc(NCCN(C)C)nc23)CC1", "< 20 nM"),
    ("C=CC(=O)N1CCN(c2cccc(-c3cn4c(n3)c(-c3c(Cl)c(OC)cc(OC)c3Cl)cc3cnc(NC)nc34)c2)CC1", "> 200 nM"),
    ("C=CC(=O)N1CCN(CCCc2cn3c(n2)c(-c2c(Cl)c(OC)cc(OC)c2Cl)cc2cnc(NC)cc23)CC1", "< 20 nM"),
    ("C=CC(=O)N1CCN(CCCc2cn3c(n2)c(-c2c(Cl)c(OC)cc(OC)c2Cl)cc2cnc(NCCOC)nc23)CC1", "< 20 nM"),
    ("C=CC(=O)N1CCN(CCCc2cn3c(n2)c(-c2c(Cl)c(OC)cc(OC)c2Cl)cc2cnc(NCC4CC4)nc23)CC1", "< 20 nM"),
]
